These data points were gathered from patent US20200262868A1.

- experimental-system: T1, human NK1 Receptor (human, UniProt P25103 1-407)
- T1 construct: whole, on cells; calcium assays used intact CHO-hNK1 cells; also called hNK1R; hNK1
- T1 sequence (P25103 whole entry): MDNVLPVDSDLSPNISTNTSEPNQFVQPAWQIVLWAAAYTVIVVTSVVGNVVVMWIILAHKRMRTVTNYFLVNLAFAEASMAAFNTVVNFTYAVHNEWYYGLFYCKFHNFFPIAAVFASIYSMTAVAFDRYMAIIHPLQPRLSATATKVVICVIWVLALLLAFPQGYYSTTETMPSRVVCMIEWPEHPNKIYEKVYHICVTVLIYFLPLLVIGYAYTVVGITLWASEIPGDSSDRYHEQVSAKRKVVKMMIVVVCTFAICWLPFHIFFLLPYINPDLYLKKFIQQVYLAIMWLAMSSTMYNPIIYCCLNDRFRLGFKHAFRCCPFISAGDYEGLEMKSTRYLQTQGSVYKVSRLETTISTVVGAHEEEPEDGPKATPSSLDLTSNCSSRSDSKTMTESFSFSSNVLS
- measurement-description: radioligand competition, displacement of 5.0 nM [3H]-septide from CHO-hNK1 membranes
Where no end group is shown, it is not given here.
As shown below, each of these binders has a reported Ki value.
Lab book: enter the figure in nM, no units written.

Use the examples below as a reference point.
{"binder": "DRFVGLX (HELM PEPTIDE1{D.R.F.V.G.L.[Nle].[am]}$$$$V2.0; N-terminus assumed; SMILES CCCC[C@H](NC(=O)[C@H](CC(C)C)NC(=O)CNC(=O)[C@@H](NC(=O)[C@H](Cc1ccccc1)NC(=O)[C@H](CCCNC(=N)N)NC(=O)[C@@H](N)CC(=O)O)C(C)C)C(N)=O, synthetic heptapeptide analog of neurokinin A, Fmoc solid-phase synthesis; also called Compound J; Cmpd J) [Heptapeptide analog J, Asp-Arg-Phe-Val-Gly-Leu-Nle-NH2]", "reported": 126}
{"binder": "DRFVALM (HELM PEPTIDE1{D.R.F.V.[bAla].L.M.[am]}$$$$V2.0; N-terminus assumed; SMILES CSCC[C@H](NC(=O)[C@H](CC(C)C)NC(=O)CCNC(=O)[C@@H](NC(=O)[C@H](Cc1ccccc1)NC(=O)[C@H](CCCNC(=N)N)NC(=O)[C@@H](N)CC(=O)O)C(C)C)C(N)=O, synthetic heptapeptide analog of neurokinin A, Fmoc solid-phase synthesis; also called Compound I; Cmpd I) [Heptapeptide analog I, Asp-Arg-Phe-Val-(β-Ala)-Leu-Met-NH2]", "reported": 95.5}
{"binder": "DRFVGLM-NH2 (synthetic heptapeptide analog of neurokinin A, Fmoc solid-phase synthesis; also called Compound H; Cmpd H) [Heptapeptide analog H, Asp-Arg-Phe-Val-Gly-Leu-Met-NH2]", "reported": 8.32}
{"binder": "DKFVALM (HELM PEPTIDE1{D.K.F.V.[bAla].L.M.[am]}$$$$V2.0; N-terminus assumed; SMILES CSCC[C@H](NC(=O)[C@H](CC(C)C)NC(=O)CCNC(=O)[C@@H](NC(=O)[C@H](Cc1ccccc1)NC(=O)[C@H](CCCCN)NC(=O)[C@@H](N)CC(=O)O)C(C)C)C(N)=O, synthetic heptapeptide analog of neurokinin A, Fmoc solid-phase synthesis; also called Compound E; Cmpd E) [Heptapeptide analog E, Asp-Lys-Phe-Val-(β-Ala)-Leu-Met-NH2]", "reported": 257}

Could you now consider this next binder?
IN: Reported Ki for DRFVGLM (HELM PEPTIDE1{D.R.F.V.G.[meL].M.[am]}$$$$V2.0; N-terminus assumed; SMILES CSCC[C@H](NC(=O)[C@H](CC(C)C)N(C)C(=O)CNC(=O)[C@@H](NC(=O)[C@H](Cc1ccccc1)NC(=O)[C@H](CCCNC(=N)N)NC(=O)[C@@H](N)CC(=O)O)C(C)C)C(N)=O, synthetic heptapeptide analog of neurokinin A, Fmoc solid-phase synthesis; also called Compound C; Cmpd C) [Heptapeptide analog C, Asp-Arg-Phe-Val-Gly-(NMe-Leu)-Met-NH2] : what is it?
OUT: 20.9
